Where do the numbers come from? From ChEMBL document CHEMBL1121728.

Test system: L1210
Experiment: Inhibition against L1210 mouse leukemia cells; Inactive
Format: functional
Conditions: read-out: ID50 (the source's name)
quantity.measured: IC50 (µM)
Number in µM, nothing else.

In: State the recorded IC50 for this entry: Nc1nc(=O)n(COCCO)cc1F
Out: 100
